Each item that follows carries a reported KD ratio to GLS3000.
- Target Entity: T1, CD3 epsilon homodimer protein (UniProt P07766 23-126)
- T1 construct: also called CD3 (CD3 epsilon)
- T1 sequence (P07766 23-126): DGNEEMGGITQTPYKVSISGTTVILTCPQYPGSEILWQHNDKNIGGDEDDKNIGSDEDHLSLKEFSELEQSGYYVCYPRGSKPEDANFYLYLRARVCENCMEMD
- Assay Comment: SPR, antibody over immobilised CD3e homodimer;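 also: SPR at 25 °C with CD3 epsilon homodimer amine-coupled to a CM4 sensor chip and antibody flowed over as analyte in HBS-EP+ running buffer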
Answer with the value's number alone.

Binder	Reported Metric	Data Value
CE115HA000/GLS3000 T31N (antibody, IgG1, name in Kabat numbering, V domains shown, one-arm IgG1) VH: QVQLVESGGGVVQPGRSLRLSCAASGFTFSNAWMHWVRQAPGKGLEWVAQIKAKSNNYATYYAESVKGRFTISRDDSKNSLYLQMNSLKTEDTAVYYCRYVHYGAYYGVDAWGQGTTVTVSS VL: DIVMTQSPLSLPVTPGEPASISCRSSQSLVHSNRNNYLHWYQQKPGQAPRLLIYKVSNRFSGVPDRFSGSGSGTDFTLKISRVEAEDVGVYYCGQGTQVPYTFGQGTKLEIK	KD ratio to GLS3000	4.46

Prompt: State the recorded KD ratio to GLS3000 for this entry: CE115HA000/GLS3000 P95S (antibody, IgG1, name in Kabat numbering, V domains shown, one-arm IgG1) VH: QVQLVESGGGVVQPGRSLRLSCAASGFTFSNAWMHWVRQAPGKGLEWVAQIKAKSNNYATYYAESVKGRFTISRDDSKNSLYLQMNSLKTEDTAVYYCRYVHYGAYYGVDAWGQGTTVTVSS VL: DIVMTQSPLSLPVTPGEPASISCRSSQSLVHSNRNTYLHWYQQKPGQAPRLLIYKVSNRFSGVPDRFSGSGSGTDFTLKISRVEAEDVGVYYCGQGTQVSYTFGQGTKLEIK
Response: 1.19

Measured values drawn from patent US20210388087A1 for this set.
